Origin of values: patent US20230349919A1

- EXPERIMENTAL TARGET: Ole e 1 (olive) (UniProt P19963)
- Sequence (P19963 whole entry): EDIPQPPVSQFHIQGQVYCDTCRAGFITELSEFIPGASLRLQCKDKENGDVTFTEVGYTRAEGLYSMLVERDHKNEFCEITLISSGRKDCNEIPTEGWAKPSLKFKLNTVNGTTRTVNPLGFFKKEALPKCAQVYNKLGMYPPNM
- EXPERIMENT DESCRIPTION: barcoded antigen sequencing of single IgE PCs with trapped IgE
ENDPOINT: Raw Antigen Barcode Count
Number only, no unit.

| BINDER | ASSAY RESULT |
| --- | --- |
| Candidate ID 13 (antibody, V domains shown) VH: QAYLQQSGAELVRPGASVKMSCKASGYTFISYNMHWVKQTRRQGLEWIGAIYPGNGDTSYNQKFKGKATLTVDKSSSTAYMQLSSLTSEDSAVYFCARWDYYGSSYGAYWGQGTLVTVSA VL: DIQMTQSPASLSVSVGETVTITCRASENIYSNLAWYQQKQGKSPQLLVYAATNLADGVPSRFSGSGSGTQYSLKINSLQSEDFGSYYCQHFWGTPWTFGGGTKLEIK | 1 |

Here is the next item to consider.
stdin: Which Raw Antigen Barcode Count value belongs to Candidate ID 16 (antibody, V domains shown) VH: EVHLQQSGPDLVKPGASVMISCQASGYSFTAYYINWVKQSPEKSLEWIGEINPGSGGVIYNRKFEAKATLIVDKSSNTAFMLLTRLTSEDSAIYYCARKGFYQFDYWGQGTTLTVSS VL: SVVMTQIPKFLVVSAGDRVTITCKASQSVNDGVFWYQQKTGQSPKLVIYHTSNRYTGVSDRFTGSGYGTEFTFTISAVQSEDLAIYFCQQDYTSPLTFGGGTRLEIK ?
stdout: 3
